From: ChEMBL document CHEMBL3856189

I'd appreciate it if you could supply IC50 values for the items below.
- assay_comment: Antiproliferative activity against human MDA-MB-231 cells after 96 hrs by SRB assay
- Assay type: functional, cell-based
- protocol_conditions: MDA-MB-231, 96 h
Your answer is read as µM, so omit the unit and give the number.

For the molecule COC(=O)c1ccccc1NC(=O)c1cc2c(cc1OC)[C@@]1(C)CC[C@H](O)C(C)(C)[C@@H]1CC2 , what IC50 is on record?
7.98

Please do the same for COc1cc2c(cc1C(=O)Nc1ccc(F)cc1)CC[C@H]1C(C)(C)[C@@H](O)CC[C@]21C as well.
2.4

What about this molecule? COC(=O)c1ccc(NC(=O)c2cc3c(cc2OC)[C@@]2(C)CC[C@H](O)C(C)(C)[C@@H]2CC3)cc1
6.81

Now the molecule COc1cc2c(cc1C(=O)Nc1ccccc1)CC[C@H]1C(C)(C)[C@@H](O)CC[C@]21C
4.49

Follow-up item: COc1cc2c(cc1C(=O)Nc1cccc(Cl)c1)CC[C@H]1C(C)(C)[C@@H](O)CC[C@]21C
0.99

Please do the same for CCNC(=O)c1cc2c(cc1OC)[C@@]1(C)CC[C@H](O)C(C)(C)[C@@H]1CC2 as well.
7.65

Also, COc1cc2c(cc1C(=O)Nc1ccccc1N)CC[C@H]1C(C)(C)[C@@H](O)CC[C@]21C please.
4.31

What do we get for COc1cc2c(cc1C(=O)Nc1ccc(Cl)cc1)CC[C@H]1C(C)(C)[C@@H](O)CC[C@]21C ?
1.03

Could you do the same for COc1cc([C@@H]2c3cc4c(cc3[C@H](O)[C@H]3COC(=O)[C@H]23)OCO4)cc(OC)c1OC , please?
0.12

Then this molecule: COc1cc2c(cc1C(=O)Nc1ccc(N)cc1)CC[C@H]1C(C)(C)[C@@H](O)CC[C@]21C
3.09

Follow-up entry: COc1ccc(NC(=O)c2cc3c(cc2OC)[C@@]2(C)CC[C@H](O)C(C)(C)[C@@H]2CC3)cc1
0.41

* * *

- assay_comment: Antiproliferative activity against human MDA-MB-231 cells after 96 hrs by SRB assay
- Format: functional, cell-based
- protocol_conditions: MDA-MB-231, 96 h
attribute_measured: pIC50
Remember, pIC50 is on a log scale: it is -log10 of the molar concentration.

Report pIC50 for COc1cc2c(cc1C(=O)Nc1ccc(N(C)C)cc1)CC[C@H]1C(C)(C)[C@@H](O)CC[C@]21C please.
6.49

Also need COc1cc2c(cc1C(=O)Nc1ccc(C)cc1)CC[C@H]1C(C)(C)[C@@H](O)CC[C@]21C , thanks.
5.91

Please answer likewise for COc1ccc(OC(=O)c2cc3c(cc2OC)[C@@]2(C)CC[C@H](O)C(C)(C)[C@@H]2CC3)cc1
4.84

Would you kindly repeat that for COc1cc2c(cc1C(=O)Nc1ccccc1C)CC[C@H]1C(C)(C)[C@@H](O)CC[C@]21C ?
5.64

# repeat for CC1(C)[C@@H](O)CC[C@]2(C)c3cc(O)c(C(=O)Nc4ccc(F)cc4)cc3CC[C@@H]12
5.03

Next molecule: COc1cc2c(cc1C(=O)Nc1ccccc1Cl)CC[C@H]1C(C)(C)[C@@H](O)CC[C@]21C
5.43

What would you report for COc1cc2c(cc1C(=O)Nc1ccc(O)cc1)CC[C@H]1C(C)(C)[C@@H](O)CC[C@]21C ?
5.72

Request: COc1ccccc1NC(=O)c1cc2c(cc1OC)[C@@]1(C)CC[C@H](O)C(C)(C)[C@@H]1CC2
6.70
